Molecular target: T1, human GIP receptor (human, UniProt P48546 22-466)
T1 sequence (looked up): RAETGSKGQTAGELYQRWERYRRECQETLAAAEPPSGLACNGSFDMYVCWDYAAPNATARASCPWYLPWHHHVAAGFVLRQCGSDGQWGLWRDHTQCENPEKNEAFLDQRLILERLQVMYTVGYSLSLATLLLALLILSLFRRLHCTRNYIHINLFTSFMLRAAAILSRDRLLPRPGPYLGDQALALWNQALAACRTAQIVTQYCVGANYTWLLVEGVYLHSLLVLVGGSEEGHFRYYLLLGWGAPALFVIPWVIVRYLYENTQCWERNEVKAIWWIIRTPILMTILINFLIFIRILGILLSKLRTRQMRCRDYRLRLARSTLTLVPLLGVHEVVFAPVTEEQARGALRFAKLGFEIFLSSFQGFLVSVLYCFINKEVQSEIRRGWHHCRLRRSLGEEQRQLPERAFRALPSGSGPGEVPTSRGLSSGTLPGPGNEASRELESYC
Assay: cell-based or functional assay
Positions of bridges follow the written chain, without caps; N, C: chain ends. Non-standard residues stand in square brackets, D forms with d. No end group written: not given here. *: point of attachment. Acetyl(2-(4-imidazolyl)) = O=C(Cc1c[nH]cn1)*; Aib = CC(C)(N)C(=O)O
OBSERVED PROPERTY: In vitro Activity Compared to Native Peptide (%) vs. GIP

BINDER | MEASURED VALUE
[Acetyl(2-(4-imidazolyl))]GQGTFTSDLSIQYDSEHQRDFIEWLKDTGPSSGAPPPSHG [triple agonist of SEQ ID NO: 19] | < 0.1%
[Acetyl(2-(4-imidazolyl))]GQGTFTSDLSKQMDEERAREFIEWLLAQKPSSGAPPPSHG [triple agonist of SEQ ID NO: 17] | < 0.1%
[Acetyl(2-(4-imidazolyl))]GQGTFTSDLSKQMDSERAREFIEWLKNTGPSSGAPPPSHG [triple agonist of SEQ ID NO: 18] | < 0.1%
H[Aib]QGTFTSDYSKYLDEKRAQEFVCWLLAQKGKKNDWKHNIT [triple agonist of SEQ ID NO: 28] | < 0.1%
H[Aib]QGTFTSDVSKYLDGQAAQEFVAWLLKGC [triple agonist of SEQ ID NO: 8] | < 0.1%
[Acetyl(2-(4-imidazolyl))][Aib]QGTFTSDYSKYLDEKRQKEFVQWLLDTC (bridge 16-20) [triple agonist of SEQ ID NO: 82] | < 0.1%
H[Aib]QGTFTSDVSSYLDGQAAKEFIAWLVKGC [triple agonist of SEQ ID NO: 1] | < 0.1%
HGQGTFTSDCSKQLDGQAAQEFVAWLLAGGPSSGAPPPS [triple agonist of SEQ ID NO: 44] | < 0.1%
H[Aib]QGTFTSDVSKYLDGQAAQEFVAWLLAGGGPSSGAPPPSC [triple agonist of SEQ ID NO: 10] | < 0.1%
[Acetyl(2-(4-imidazolyl))][Aib]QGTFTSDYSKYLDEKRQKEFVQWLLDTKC (bridge 16-20) [triple agonist of SEQ ID NO: 89] | < 0.1%
{Acetyl(2-(4-imidazolyl))}-[Aib]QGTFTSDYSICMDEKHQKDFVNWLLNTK (bridge 15-19) [triple agonist of SEQ ID NO: 59] | 4%
H[Aib]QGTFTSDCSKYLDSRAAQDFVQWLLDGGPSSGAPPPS [triple agonist of SEQ ID NO: 26] | < 0.1%
H[Aib]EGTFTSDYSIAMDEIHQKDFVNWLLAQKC (bridge 16-20) [triple agonist of SEQ ID NO: 79] | 1.4%
{Acetyl(2-(4-imidazolyl))}-[Aib]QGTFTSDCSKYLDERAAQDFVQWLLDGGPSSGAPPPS (ends and bridges not checked) [triple agonist of SEQ ID NO: 63] | < 0.1%
H[Aib]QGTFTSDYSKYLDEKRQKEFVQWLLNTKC (bridge 16-20) [triple agonist of SEQ ID NO: 58] | 0.2%
